The following binders are shown together with reported Relative potency (relative human lectin pathway inhibitory efficiency compared to EVO2) values.
Molecular target: human MASP-2 (in normal human serum) (human, UniProt O00187 16-686)
Sequence (O00187 16-686 limits assumed): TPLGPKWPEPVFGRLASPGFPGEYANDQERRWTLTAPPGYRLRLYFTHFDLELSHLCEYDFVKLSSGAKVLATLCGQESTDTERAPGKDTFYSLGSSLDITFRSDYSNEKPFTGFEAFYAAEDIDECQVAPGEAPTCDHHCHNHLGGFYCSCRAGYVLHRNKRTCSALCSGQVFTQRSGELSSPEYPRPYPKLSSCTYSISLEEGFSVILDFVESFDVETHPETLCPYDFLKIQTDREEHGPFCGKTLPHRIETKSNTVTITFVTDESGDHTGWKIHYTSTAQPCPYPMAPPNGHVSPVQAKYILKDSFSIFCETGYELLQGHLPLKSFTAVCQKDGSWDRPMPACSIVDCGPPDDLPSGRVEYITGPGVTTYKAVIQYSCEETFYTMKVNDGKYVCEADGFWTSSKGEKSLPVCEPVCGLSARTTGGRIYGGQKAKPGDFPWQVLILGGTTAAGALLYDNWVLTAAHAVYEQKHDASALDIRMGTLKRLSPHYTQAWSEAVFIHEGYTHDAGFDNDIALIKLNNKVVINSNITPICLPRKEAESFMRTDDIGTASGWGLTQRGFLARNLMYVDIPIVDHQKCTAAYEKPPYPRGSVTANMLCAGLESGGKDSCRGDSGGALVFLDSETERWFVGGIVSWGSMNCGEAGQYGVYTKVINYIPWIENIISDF
Assay: cell-based or functional assay
Where no end group is shown, it is not given here.

Solved cases (3 shown):
>>> value("EVO21c (designed binder, not fully specified; cysteine pairing not given here, Modified TFPI-D2 Kunitz domain; made as m1) KPDFCFLEEDPGPCRALKRRYFYNNQTKQCERFGYGGCFGNMNNFVTLEECKNICEDG")
"22.3 fold relative to EVO2"
>>> value("EVO214a (designed binder) KPDFCFLEEDPGPCRALKLRYFYNNQTKQCERFGYGGCFGNMNNFVTLEECKNICEDG")
"15.2 fold relative to EVO2"
>>> value("EVO211a (designed binder) KPDFCFLEEDPGWCRALKRRYFYNNQTKQCERFGYGGCFGNMNNFVTLEECKNICEDG")
"13.5 fold relative to EVO2"

# binder EVO23a (designed binder) KPDFCFLEEDPGPCRALKRRYFYNNQTKQCERFYYGGCFGNMNNFVTLEECKNICEDG ; its Relative potency (relative human lectin pathway inhibitory efficiency compared to EVO2) = 43.1 fold relative to EVO2

# binder EVO21a (designed binder, not fully specified; cysteine pairing not given here, Modified TFPI-D2 Kunitz domain; made as m1) KPDFCFLENDPGPCRAVKRRYFYNNQTKQCERFGYGGCLGNMNNFVTLEECKNICEDG ; its Relative potency (relative human lectin pathway inhibitory efficiency compared to EVO2) = 6.4 fold relative to EVO2

# binder EVO21 (designed binder, not fully specified; ends and bridges not checked, Modified TFPI-D2 Kunitz domain; made as m1) KPDFCFLENDPGPCRALKRRYFYNNQTKQCERFGYGGCLGNMNNFVTLEECKNICEDG ; its Relative potency (relative human lectin pathway inhibitory efficiency compared to EVO2) = 24 fold relative to EVO2

# binder EVO21b (designed binder, not fully specified; cysteine pairing not given here) KPDFCFLEEDPGPCRALKRRYFYNNQTKQCERFGYGGCLGNMNNFVTLEECKNICEDG ; its Relative potency (relative human lectin pathway inhibitory efficiency compared to EVO2) = 32.1 fold relative to EVO2

# binder EVO22d (designed binder) KPDFCFLEEDPGPCRAAKRRYFYNNQTKQCERFYYGGCFGNMNNFVTLEECKNICEDG ; its Relative potency (relative human lectin pathway inhibitory efficiency compared to EVO2) = 24.6 fold relative to EVO2

# binder EVO221 (designed binder, not fully specified; cysteine pairing not given here, Modified TFPI-D2 Kunitz domain; made as m1) KPDFCFLENDPGVCRAAAVRYFYNNQTKQCERFYYGGCLGNMNNFVTLEECKNICEDG ; its Relative potency (relative human lectin pathway inhibitory efficiency compared to EVO2) = 10.8 fold relative to EVO2

Attribution: patent US20260098080A1
